For each entry below, report its IC50 value.
- SYSTEM: αvβ3 (Homo sapiens, UniProt P05106+P06756)
- Construct: endogenous in cells
- Sequence (P06756 31-889 limits assumed): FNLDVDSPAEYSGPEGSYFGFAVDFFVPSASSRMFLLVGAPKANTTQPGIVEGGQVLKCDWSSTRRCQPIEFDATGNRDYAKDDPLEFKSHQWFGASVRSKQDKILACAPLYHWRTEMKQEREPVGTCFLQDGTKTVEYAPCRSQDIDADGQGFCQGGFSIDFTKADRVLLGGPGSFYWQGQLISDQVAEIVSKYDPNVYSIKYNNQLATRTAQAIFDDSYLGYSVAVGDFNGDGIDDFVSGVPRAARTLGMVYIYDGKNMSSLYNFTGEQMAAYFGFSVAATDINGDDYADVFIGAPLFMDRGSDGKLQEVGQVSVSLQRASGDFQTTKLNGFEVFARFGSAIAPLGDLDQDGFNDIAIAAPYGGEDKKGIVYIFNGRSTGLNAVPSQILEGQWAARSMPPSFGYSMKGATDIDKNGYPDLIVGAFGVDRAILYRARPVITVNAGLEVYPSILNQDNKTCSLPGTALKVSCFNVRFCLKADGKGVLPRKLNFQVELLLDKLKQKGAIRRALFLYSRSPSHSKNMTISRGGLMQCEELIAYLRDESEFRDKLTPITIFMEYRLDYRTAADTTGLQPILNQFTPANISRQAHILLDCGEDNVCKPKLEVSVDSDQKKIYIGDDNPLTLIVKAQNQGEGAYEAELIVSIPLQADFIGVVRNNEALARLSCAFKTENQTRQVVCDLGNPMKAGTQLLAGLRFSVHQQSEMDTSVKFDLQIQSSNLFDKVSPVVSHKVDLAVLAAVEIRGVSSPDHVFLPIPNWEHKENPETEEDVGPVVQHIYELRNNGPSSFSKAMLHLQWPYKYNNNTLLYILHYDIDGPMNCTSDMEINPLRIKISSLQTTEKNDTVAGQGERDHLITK
- Sequence (P06756 891-1048 partner limits assumed): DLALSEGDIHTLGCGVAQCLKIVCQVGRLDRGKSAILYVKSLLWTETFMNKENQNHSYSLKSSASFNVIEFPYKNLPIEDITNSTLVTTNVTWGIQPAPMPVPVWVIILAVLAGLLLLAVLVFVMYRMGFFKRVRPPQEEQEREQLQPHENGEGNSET
- Sequence (P05106 27-788): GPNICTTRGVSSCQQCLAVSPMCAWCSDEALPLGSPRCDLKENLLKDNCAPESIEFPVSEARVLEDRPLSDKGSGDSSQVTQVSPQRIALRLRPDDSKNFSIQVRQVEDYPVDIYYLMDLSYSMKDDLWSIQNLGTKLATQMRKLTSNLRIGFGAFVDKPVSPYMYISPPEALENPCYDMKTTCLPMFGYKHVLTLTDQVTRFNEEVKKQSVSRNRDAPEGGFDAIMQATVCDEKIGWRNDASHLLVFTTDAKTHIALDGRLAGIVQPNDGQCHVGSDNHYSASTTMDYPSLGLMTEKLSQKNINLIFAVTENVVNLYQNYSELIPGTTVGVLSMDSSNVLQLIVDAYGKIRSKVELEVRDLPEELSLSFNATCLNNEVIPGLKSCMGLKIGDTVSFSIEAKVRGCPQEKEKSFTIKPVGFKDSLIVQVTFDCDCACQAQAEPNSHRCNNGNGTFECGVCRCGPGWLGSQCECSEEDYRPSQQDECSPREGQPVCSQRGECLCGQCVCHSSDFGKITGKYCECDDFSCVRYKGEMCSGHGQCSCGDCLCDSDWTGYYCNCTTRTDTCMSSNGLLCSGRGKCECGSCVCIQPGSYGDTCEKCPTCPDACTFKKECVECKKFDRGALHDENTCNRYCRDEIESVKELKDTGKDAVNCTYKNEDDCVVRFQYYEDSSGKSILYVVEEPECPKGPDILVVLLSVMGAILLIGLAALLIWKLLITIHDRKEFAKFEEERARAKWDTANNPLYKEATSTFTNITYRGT
- ASSAY_OVERVIEW: Sk-Mel-2 cell adhesion to immobilised fibronectin (cell-binding assay, MTT readout)
- REPORTED_CONDITIONS: Sk-Mel-2 adhesion to Fn, mean ± SD
Numbers only, in µM.

Previously resolved entries follow.
COMPOUND | SYSTEM | QUANTITATIVE_RESULT
COC(=O)[C@H](CNC(=O)C1CC(CCNc2ncccn2)C1)NS(=O)(=O)c1c(C)cc(C)cc1C (some centres unmarked) [ICT9019 21] | αvβ3 (Homo sapiens, UniProt P05106+P06756) | 50
Cc1cc(C)c(S(=O)(=O)N[C@@H](CNC(=O)C2CC(CCNc3ncccn3)C2)C(=O)O)c(C)c1 (some centres unmarked) [ICT9030 50] | αvβ3 (Homo sapiens, UniProt P05106+P06756) | 50
COC(=O)[C@H](CNC(=O)[C@H]1C[C@@H](CCCNc2ncccn2)C1)NS(=O)(=O)c1c(C)cc(C)cc1C [ICT9025 28] | αvβ3 (Homo sapiens, UniProt P05106+P06756) | 38
COC(=O)[C@H](CNC(=O)[C@H]1C[C@H](CCc2ccc3c(n2)NCCC3)C1)NS(=O)(=O)c1c(C)cc(C)cc1C [ICT9055 46] | αvβ3 (Homo sapiens, UniProt P05106+P06756) | 0.34
Cc1cc(C)c(S(=O)(=O)N[C@@H](CNC(=O)[C@H]2C[C@@H](CCCNc3ncccn3)C2)C(=O)O)c(C)c1 [ICT9090 53] | αvβ3 (Homo sapiens, UniProt P05106+P06756) | 11

Read the next record carefully.
Please give measured IC50 of the following entry: COC(=O)[C@H](CNC(=O)[C@H]1C[C@H](CCNc2ncccn2)C1)NS(=O)(=O)c1c(C)cc(C)cc1C [ICT9024 27] 13

====

- SYSTEM: αIIbβ3 (Homo sapiens, UniProt P05106+P08514)
- Construct: purchased Sigma
- Sequence (P08514 32-887 limits assumed): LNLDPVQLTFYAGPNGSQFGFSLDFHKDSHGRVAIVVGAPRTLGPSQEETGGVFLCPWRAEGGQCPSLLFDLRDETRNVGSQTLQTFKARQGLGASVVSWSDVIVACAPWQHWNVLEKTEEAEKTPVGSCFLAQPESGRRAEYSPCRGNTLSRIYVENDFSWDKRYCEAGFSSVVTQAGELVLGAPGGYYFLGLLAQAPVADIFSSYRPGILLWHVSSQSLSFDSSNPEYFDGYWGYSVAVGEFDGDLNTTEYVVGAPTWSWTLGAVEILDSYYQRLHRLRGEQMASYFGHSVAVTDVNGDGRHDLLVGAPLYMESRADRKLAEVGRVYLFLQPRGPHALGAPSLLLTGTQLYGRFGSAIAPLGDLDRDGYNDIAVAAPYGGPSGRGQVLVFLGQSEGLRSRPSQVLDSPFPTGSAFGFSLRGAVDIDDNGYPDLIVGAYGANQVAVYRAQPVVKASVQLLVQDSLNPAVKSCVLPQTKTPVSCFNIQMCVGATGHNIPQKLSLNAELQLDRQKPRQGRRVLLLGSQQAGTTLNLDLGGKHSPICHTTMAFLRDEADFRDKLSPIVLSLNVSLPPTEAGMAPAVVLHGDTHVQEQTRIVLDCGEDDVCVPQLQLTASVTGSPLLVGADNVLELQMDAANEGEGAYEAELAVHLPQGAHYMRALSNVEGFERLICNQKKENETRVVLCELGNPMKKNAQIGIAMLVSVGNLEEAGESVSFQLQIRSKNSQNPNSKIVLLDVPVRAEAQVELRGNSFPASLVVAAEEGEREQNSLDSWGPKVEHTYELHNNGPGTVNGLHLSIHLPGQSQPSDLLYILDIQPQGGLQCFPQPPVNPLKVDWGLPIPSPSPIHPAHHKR
- Sequence (P08514 891-1039 partner limits assumed): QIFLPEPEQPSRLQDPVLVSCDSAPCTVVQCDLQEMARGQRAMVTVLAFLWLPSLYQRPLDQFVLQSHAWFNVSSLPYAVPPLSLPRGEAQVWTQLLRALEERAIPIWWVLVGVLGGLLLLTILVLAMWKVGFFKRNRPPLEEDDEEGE
- Sequence (P05106 27-788): as the sequence (P05106 27-788) above
- ASSAY_OVERVIEW: αIIbβ3/fibrinogen purified protein binding ELISA
- REPORTED_CONDITIONS: 50 μM, mean ± SD
Mark Met for reported % Inhibition (αIIbβ3/Fg) @ 50 μM of 30% or greater; mark Not met for anything smaller.

MOLECULE | CLASS
COC(=O)[C@H](CNC(=O)C1CC(CCNc2ncccn2)C1)NS(=O)(=O)c1c(C)cc(C)cc1C (some centres unmarked) | Not met
COC(=O)[C@H](CNC(=O)[C@H]1C[C@@H](CCCNc2ncccn2)C1)NS(=O)(=O)c1ccccc1 | Met

Hi, just wondering whether `COC(=O)[C@H](CNC(=O)[C@H]1C[C@@H](CCCNc2ncccn2)C1)NS(=O)(=O)c1c(C)cc(C)cc1C` shows % Inhibition (αIIbβ3/Fg) @ 50 μM of 30% or higher. Met

Hi, just wondering whether Cc1cc(C)c(S(=O)(=O)N[C@@H](CNC(=O)C2CC(CCNc3ncccn3)C2)C(=O)O)c(C)c1 (some centres unmarked) [ICT9031 52] shows % Inhibition (αIIbβ3/Fg) @ 50 μM of 30% or higher. Met

Hi, just wondering whether Cc1cc(C)c(S(=O)(=O)N[C@@H](CNC(=O)C2CC(CCNc3ncccn3)C2)C(=O)O)c(C)c1 (some centres unmarked) [ICT9030 50] shows % Inhibition (αIIbβ3/Fg) @ 50 μM of 30% or higher. Met

====

For each entry below, report its pIC50 value.
- SYSTEM: αIIbβ3 (Homo sapiens, UniProt P05106+P08514)
- Construct: purchased Sigma
- ASSAY_OVERVIEW: αIIbβ3/fibrinogen purified protein binding ELISA
- REPORTED_CONDITIONS: mean ± SD, read-out: IC50 (αIIbβ3/Fg)
Numbers only, as −log10 of the molar value.

Previously resolved entries follow.
COMPOUND | pIC50
O=C(O)[C@H](CNC(=O)[C@H]1C[C@H](CCCNc2ncccn2)C1)NS(=O)(=O)c1ccccc1 [ICT9028 51] | 5.11
O=C(O)[C@H](CNC(=O)[C@H]1C[C@@H](CCCNc2ncccn2)C1)NS(=O)(=O)c1ccccc1 [ICT9029 54] | 5.48

Read the next record carefully.
Please give measured pIC50 of the following entry: Cc1cc(C)c(S(=O)(=O)N[C@@H](CNC(=O)C2CC(CCNc3ncccn3)C2)C(=O)O)c(C)c1 (stereo partly drawn) [ICT9030 50] 5.46

====

- Test system: M14
- ASSAY_OVERVIEW: Cytotoxicity by MTT assay, 96 h, M14
- Format: cell-based, human
- REPORTED_CONDITIONS: MTT, 96 hours
RESULT_TYPE: IC50 (µM)
Answers are plain numbers, in µM.

CHEMICAL_STRUCTURE | QUANTITATIVE_RESULT
COC(=O)[C@H](CNC(=O)[C@H]1C[C@H](CCc2ccc3cccnc3n2)C1)NS(=O)(=O)c1c(C)cc(C)cc1C | 72.7
COC(=O)[C@H](CNC(=O)[C@H]1C[C@@H](CCc2ccc3c(n2)NCCC3)C1)NS(=O)(=O)c1c(C)cc(C)cc1C | 3.3

Read the next record carefully.
Please give measured IC50 of the following entry: `COC(=O)[C@H](CNC(=O)[C@H]1C[C@H](CCCNc2ncccn2)C1)NS(=O)(=O)c1c(C)cc(C)cc1C` 36

====

- Tested on: platelet aggregation
- ASSAY_OVERVIEW: ADP-induced platelet aggregation in hirudin-treated whole blood (ex vivo)
- Type: cell-based, human
- REPORTED_CONDITIONS: ADP 6.4 μM, 100 μM
For each entry below, report its % Inhibition (Platelet Aggregation) @ 100 μM value.
Answers are plain numbers, in %.

MOLECULE | SYSTEM | QUANTITATIVE_RESULT
COC(=O)[C@H](CNC(=O)[C@H]1C[C@H](CCc2ccc3c(n2)NCCC3)C1)NS(=O)(=O)c1c(C)cc(C)cc1C | platelet aggregation | 5.6
Cc1cc(C)c(S(=O)(=O)N[C@@H](CNC(=O)C2CC(CCc3ccc4cccnc4n3)C2)C(=O)O)c(C)c1 (some centres unmarked) | platelet aggregation | 13.0
Cc1cc(C)c(S(=O)(=O)N[C@@H](CNC(=O)C2CC(CCNc3ncccn3)C2)C(=O)O)c(C)c1 (some centres unmarked) | platelet aggregation | 11.1
Cl.Cl.Cl.N=C(N)c1ccc(N2CCN(C3CCN(CC(=O)O)CC3)CC2)cc1 [GR144053, reference compound] | platelet aggregation | 100

Please give measured % Inhibition (Platelet Aggregation) @ 100 μM of the following entry: `Cc1cc(C)c(S(=O)(=O)N[C@@H](CNC(=O)[C@H]2C[C@@H](CCCNc3ncccn3)C2)C(=O)O)c(C)c1` 21.2

====

- Test system: Sk-Mel-2
- ASSAY_OVERVIEW: in vitro
- Format: cell-based, human
RESULT_TYPE: pIC50
Give bare numbers, as −log10 of the molar value.

Previously resolved entries follow.
MOLECULE | SYSTEM | pIC50
Cc1cc(C)c(S(=O)(=O)N[C@@H](CNC(=O)C2CC(CCc3ccc4cccnc4n3)C2)C(=O)O)c(C)c1 (stereo partly drawn) [ICT9063 55] | Sk-Mel-2 | 4.21
Cc1cc(C)c(S(=O)(=O)N[C@@H](CNC(=O)C2CC(CCNc3ncccn3)C2)C(=O)O)c(C)c1 (stereo partly drawn) [ICT9030 50] | Sk-Mel-2 | 4.04
COC(=O)[C@H](CNC(=O)C1CC(CCNc2ncccn2)C1)NS(=O)(=O)c1c(C)cc(C)cc1C (stereo partly drawn) [ICT9019 21] | Sk-Mel-2 | 4.27
COC(=O)[C@H](CNC(=O)[C@H]1C[C@H](CCNc2ncccn2)C1)NS(=O)(=O)c1c(C)cc(C)cc1C [ICT9024 27] | Sk-Mel-2 | 4.25
COC(=O)[C@H](CNC(=O)C1CC(Cc2ccc3c(n2)NCCC3)C1)NS(=O)(=O)c1c(C)cc(C)cc1C (stereo partly drawn) [ICT9080 48] | Sk-Mel-2 | 4.26

Read the next record carefully.
Please give measured pIC50 of the following entry: COC(=O)[C@H](CNC(=O)C1CC(CCc2ccc3cccnc3n2)C1)NS(=O)(=O)c1ccccc1 (stereo partly drawn) [ICT9054 40] 4.19

====

For each entry below, report its Adhesion % Inhibition @ 5 μM value.
- SYSTEM: αvβ3 (Homo sapiens, UniProt P05106+P06756)
- Construct: endogenous in cells; host or cells: SK-Mel-2 melanoma cells
- ASSAY_OVERVIEW: Sk-Mel-2 cell adhesion to immobilised fibronectin (cell-binding assay, MTT readout)
- Assay type: cell-based
- REPORTED_CONDITIONS: Sk-Mel-2 adhesion to Fn, 5 μM, mean ± SD
Please append the unit to your numeric answer.

Previously resolved entries follow.
COMPOUND | Adhesion % Inhibition @ 5 μM
COC(=O)[C@H](CNC(=O)[C@H]1C[C@@H](CCCNc2ncccn2)C1)NS(=O)(=O)c1c(C)cc(C)cc1C [ICT9025 28] | 0 ± 19.6%
COC(=O)[C@H](CNC(=O)C1CC(CCc2ccc3cccnc3n2)C1)NS(=O)(=O)c1c(C)cc(C)cc1C (stereo partly drawn) [ICT9061 44] | 32.4 ± 16.1%
COC(=O)[C@H](CNC(=O)[C@H]1C[C@H](CCc2ccc3c(n2)NCCC3)C1)NS(=O)(=O)c1c(C)cc(C)cc1C [ICT9055 46] | 98.4 ± 1.9%
COC(=O)[C@H](CNC(=O)[C@H]1C[C@H](CCc2ccc3cccnc3n2)C1)NS(=O)(=O)c1c(C)cc(C)cc1C [ICT9053 41] | 27.5 ± 32.9%
COC(=O)[C@H](CNC(=O)[C@H]1C[C@H](CCCNc2ncccn2)C1)NS(=O)(=O)c1c(C)cc(C)cc1C [ICT9020 24] | 19.1 ± 14.2%
COC(=O)[C@H](CNC(=O)C1CC(Cc2ccc3c(n2)NCCC3)C1)NS(=O)(=O)c1c(C)cc(C)cc1C (stereo partly drawn) [ICT9080 48] | 61.5 ± 11.1%

// batch mode: one Adhesion % Inhibition @ 5 μM value per listed entry
1. Cc1cc(C)c(S(=O)(=O)N[C@@H](CNC(=O)C2CC(CCc3ccc4cccnc4n3)C2)C(=O)O)c(C)c1 (stereo partly drawn) [ICT9063 55]
2. COC(=O)[C@H](CNC(=O)[C@H]1C[C@H](CCCCNc2ncccn2)C1)NS(=O)(=O)c1c(C)cc(C)cc1C [ICT9018 26]
3. COC(=O)[C@H](CNC(=O)C1CC(CCc2ccc3cccnc3n2)C1)NS(=O)(=O)c1ccccc1 (stereo partly drawn) [ICT9054 40]
4. COC(=O)[C@H](CNC(=O)[C@H]1C[C@@H](CCc2ccc3c(n2)NCCC3)C1)NS(=O)(=O)c1c(C)cc(C)cc1C [ICT9062 49]
5. COC(=O)[C@H](CNC(=O)[C@H]1C[C@H](CCNc2ncccn2)C1)NS(=O)(=O)c1c(C)cc(C)cc1C [ICT9024 27]

1: 20.7 ± 11.9%; 2: 20.9 ± 27.5%; 3: 48.7 ± 30.6%; 4: 72.3 ± 9.4%; 5: 39.4 ± 17.1%

// batch mode: one Adhesion % Inhibition @ 5 μM value per listed entry
1. Cc1cc(C)c(S(=O)(=O)N[C@@H](CNC(=O)C2CC(CCNc3ncccn3)C2)C(=O)O)c(C)c1 (stereo partly drawn) [ICT9030 50]
2. COC(=O)[C@H](CNC(=O)C1CC(CCNc2ncccn2)C1)NS(=O)(=O)c1c(C)cc(C)cc1C (stereo partly drawn) [ICT9019 21]
3. COC(=O)[C@H](CNC(=O)C1CC(Cc2ccc3cccnc3n2)C1)NS(=O)(=O)c1c(C)cc(C)cc1C (stereo partly drawn) [ICT9079 43]
4. COC(=O)[C@H](CNC(=O)C1CC(CCc2ccc3c(n2)NCCC3)C1)NS(=O)(=O)c1ccccc1 (stereo partly drawn) [ICT9057 45]

["4.5 ± 19.6%", "35.2 ± 19.1%", "33.5 ± 26.2%", "59.5 ± 24.0%"]
